biological target: HLA-A*11:01; assay: IEDB peptide-MHC binding, purified MHC/direct/fluorescence; filed as Kd, often an IC50 or EC50 that approximates it; bounds were set here for any values at or beyond the usual limits of such assays; details: source organism: Yellow fever virus 17D
observation-type: Kd (nM)
The reply should contain only the number, in nM.

Enquiry: What value of Kd has been reported for the following sequence? VLDCRTAFK
Return: 109

---

target: HLA-A*02:03; experiment: IEDB peptide-MHC binding, purified MHC/direct/fluorescence; filed as Kd, often an IC50 or EC50 that approximates it; bounds were set here for any values at or beyond the usual limits of such assays; settings: source organism: Toxoplasma gondii
observation-type: Kd

Enquiry: Endpoint output: Kd of VSSHKGWAK . Value?
Return: ≥ 20 µM

---

target: HLA-A*01:01; test: IEDB peptide-MHC binding, purified MHC/competitive/radioactivity; filed as Kd, often an IC50 or EC50 that approximates it; bounds were set here for any values at or beyond the usual limits of such assays; conditions: source organism: Mammarenavirus whitewaterense
observation-type: Kd (µM)
A number alone suffices; assume µM.

Enquiry: Please give the measured Kd for this sequence: ATTNAHCALL
Return: 7.67

---

biological target: HLA-B*44:02; assay: IEDB peptide-MHC binding, purified MHC/direct/fluorescence; filed as Kd, often an IC50 or EC50 that approximates it; bounds were set here for any values at or beyond the usual limits of such assays; conditions: source organism: Rickettsia sibirica
pKd: −log10 of the molar value.
observation-type: pKd

Enquiry: What value of measured pKd is listed for AIKPITDQF ?
Return: ≤ 4.70

---

molecular target: HLA-A*03:01; test: IEDB peptide-MHC binding, purified MHC/direct/fluorescence; filed as Kd, often an IC50 or EC50 that approximates it; bounds were set here for any values at or beyond the usual limits of such assays; settings: source organism: Orthohantavirus tulaense
observation-type: Kd

Enquiry: Using the record for VVDALRNIY , report its Kd.
Return: ≥ 20 µM

---

target: HLA-B*08:01; assay: IEDB peptide-MHC binding, purified MHC/competitive/fluorescence; bounds were set here for any values at or beyond the usual limits of such assays; conditions: source organism: Zaire ebolavirus
pIC50: −log10 of the molar value.
observation-type: pIC50

Here's what some known entries look like.
residue_sequence=LFQRTFSIP observation_type=pIC50 measurement="≤ 3.57"
residue_sequence=EGHGFRFEV observation_type=pIC50 measurement=4.16

Now look at this one.
Enquiry: Form field: reported pIC50 of MVIFRLMRT
Return: ≤ 4.11

---

target: HLA-A*31:01; assay: IEDB peptide-MHC binding, purified MHC/competitive/radioactivity; filed as Kd, often an IC50 or EC50 that approximates it; bounds were set here for any values at or beyond the usual limits of such assays; conditions: source organism: Hepatitis C virus (isolate 1)
observation-type: Kd

Enquiry: What value of Kd has been reported for the following sequence? HSKKKCDEL
Return: ≥ 65 µM

---

molecular target: HLA-A*03:01; assay: IEDB peptide-MHC binding, purified MHC/direct/fluorescence; filed as Kd, often an IC50 or EC50 that approximates it; bounds were set here for any values at or beyond the usual limits of such assays; details: source organism: Rickettsia sibirica
observation-type: Kd

Enquiry: # get_value(readout='Kd', item= AIKPITDQF )
Return: ≥ 20 µM

---

biological target: HLA-A*03:01; assay: IEDB peptide-MHC binding, purified MHC/direct/fluorescence; filed as Kd, often an IC50 or EC50 that approximates it; bounds were set here for any values at or beyond the usual limits of such assays; settings: source organism: Vibrio cholerae
observation-type: Kd (µM)
Field: numeric (µM). Do not append units.

Enquiry: So what does the record say about Kd for LSARHASGK ?
Return: 0.127

---

target: HLA-A*03:01; test: IEDB peptide-MHC binding, purified MHC/competitive/radioactivity; filed as Kd, often an IC50 or EC50 that approximates it; bounds were set here for any values at or beyond the usual limits of such assays; details: source organism: Vaccinia virus WR
// reported Kd per item
Form entry: value (nM) — number only.

residue_sequence=ASLKNTISK observation_type=Kd measurement=6.45
residue_sequence=DLTALLSCIR observation_type=Kd measurement=13200
residue_sequence=VFSFWLLCK observation_type=Kd measurement=281
residue_sequence=YTHGIVFDGK observation_type=Kd measurement=7.46
residue_sequence=DFSKSTSPTR observation_type=Kd measurement=2720

Enquiry: What does the data say about its Kd? Entry: NSSIISLFY
Return: 56.7

---

target: HLA-A*02:01; assay: IEDB peptide-MHC binding, purified MHC/direct/fluorescence; filed as Kd, often an IC50 or EC50 that approximates it; bounds were set here for any values at or beyond the usual limits of such assays; conditions: source organism: Coxiella burnetii
observation-type: Kd

Enquiry: Tell me the measured Kd of ITLYEYDHF , please.
Return: ≥ 20 µM

---

target: HLA-A*02:06; assay: IEDB peptide-MHC binding, purified MHC/competitive/radioactivity; filed as Kd, often an IC50 or EC50 that approximates it; bounds were set here for any values at or beyond the usual limits of such assays; conditions: source organism: Hepacivirus hominis
observation-type: Kd (nM)
Write down the numeric answer in nM and omit the unit.

Enquiry: Would you kindly share the measured Kd for VLSDFRTWL ?
Return: 305

---

molecular target: HLA-B*40:01; assay: IEDB peptide-MHC binding, purified MHC/direct/fluorescence; filed as Kd, often an IC50 or EC50 that approximates it; bounds were set here for any values at or beyond the usual limits of such assays; conditions: source organism: Ebola virus - Gabon (1994-1997)
pKd: −log10 of the molar value.
observation-type: pKd

Enquiry: # lookup: pKd of AKATGRYNL
Return: ≤ 4.70

---

biological target: HLA-A*01:01; assay: IEDB peptide-MHC binding, purified MHC/competitive/radioactivity; filed as Kd, often an IC50 or EC50 that approximates it; bounds were set here for any values at or beyond the usual limits of such assays; details: source organism: Lassa virus GA391
pKd: −log10 of the molar value.
observation-type: pKd

Enquiry: I'd like to know its pKd. The sequence in question is EGNETPGGY
Return: ≤ 4.68

---

biological target: HLA-B*40:01; test: IEDB peptide-MHC binding, purified MHC/direct/fluorescence; filed as Kd, often an IC50 or EC50 that approximates it; bounds were set here for any values at or beyond the usual limits of such assays; conditions: source organism: Influenza A virus (A/Netherlands/458/98 (H3N2))
observation-type: Kd (nM)
Output spec: scalar in nM, unitless text.

Enquiry: Quick one: Kd for FEKEGYSLV ?
Return: 118

---

target: HLA-A*02:17; test: IEDB peptide-MHC binding, purified MHC/competitive/radioactivity; filed as Kd, often an IC50 or EC50 that approximates it; bounds were set here for any values at or beyond the usual limits of such assays; conditions: source organism: Dengue virus 3 China/80-2/1980
In this section we review reported Kd values for a set of sequences.
Report the value in nM with no unit label.

Enquiry: GET /values?readout=Kd&item= MIAGVLFTFV
Return: 423

Enquiry: Try this sequence too: YLDVDLHPA
Return: 1890

---

biological target: HLA-B*53:01; assay: IEDB peptide-MHC binding, purified MHC/competitive/radioactivity; filed as Kd, often an IC50 or EC50 that approximates it; bounds were set here for any values at or beyond the usual limits of such assays; details: source organism: Vaccinia virus Copenhagen
pKd: −log10 of the molar value.
observation-type: pKd

Enquiry: Entry under review: LMDSIFVST . Reported pKd?
Return: ≤ 4.11

---

molecular target: HLA-A*69:01; assay: IEDB peptide-MHC binding, purified MHC/competitive/fluorescence; filed as Kd, often an IC50 or EC50 that approximates it; bounds were set here for any values at or beyond the usual limits of such assays; conditions: source organism: Entamoeba histolytica HM-1:IMSS
pKd: −log10 of the molar value.
observation-type: pKd

Enquiry: I am curious: what pKd value has been reported for RTFDRFFEE ?
Return: ≤ 4.70

---

target: HLA-A*31:01; assay: IEDB peptide-MHC binding, purified MHC/direct/fluorescence; filed as Kd, often an IC50 or EC50 that approximates it; bounds were set here for any values at or beyond the usual limits of such assays; conditions: source organism: Giardia lamblia ATCC 50803
pKd: −log10 of the molar value.
observation-type: pKd

Enquiry: Return reported pKd; argument: VAAKGAPAL
Return: ≤ 4.70

---

biological target: HLA-A*02:01; assay: IEDB peptide-MHC binding, purified MHC/direct/fluorescence; filed as Kd, often an IC50 or EC50 that approximates it; bounds were set here for any values at or beyond the usual limits of such assays; details: source organism: Vibrio parahaemolyticus
pKd: −log10 of the molar value.
observation-type: pKd

Enquiry: Recorded pKd of ILRPLGIEY , please.
Return: ≤ 4.70

---

target: HLA-A*02:02; assay: IEDB peptide-MHC binding, purified MHC/competitive/radioactivity; filed as Kd, often an IC50 or EC50 that approximates it; bounds were set here for any values at or beyond the usual limits of such assays; details: source organism: Vaccinia virus WR
pKd: −log10 of the molar value.
// label = criterion met if pKd is not less than 6, otherwise criterion not met

residue_sequence=LIFNVKSKLL label="criterion not met"
residue_sequence=IAGLKIEEI label="criterion not met"
residue_sequence=SLVITYCLVT label="criterion met"
residue_sequence=RTWKVLSIMA label="criterion not met"
residue_sequence=GLRQQLEDI label="criterion met"
residue_sequence=KVDDTFYYV label="criterion not met"

As a next step, examine the sequence that follows.
Enquiry: Given VISTIANSNI , state whether its pKd is at least 6.
Return: criterion met

Origin of values: the Immune Epitope Database (IEDB)
